Test system: NCI-H23
Experiment: relative viability (nuclei count vs DMSO), 5 days (fraction); higher = more cells survive
Conditions: first compound 0.1265 µM
Recorded Endpoint: relative viability
When you answer, write just the number.

Answered examples (3):
- Compound: "Cc1sc2c(c1C)C(c1ccc(Cl)cc1)=N[C@@H](CC(=O)OC(C)(C)C)c1nnc(C)n1-2 [JQ1] + C[C@]1(O)C[C@@H](c2nc(-c3ccc4ccc(-c5ccccc5)nc4c3)c3c(N)nccn32)C1 [Linsitinib] (partner 1 µM)"
  Target Of Assay: "NCI-H23"
  relative viability: 0.555
- Compound: "Cc1sc2c(c1C)C(c1ccc(Cl)cc1)=N[C@@H](CC(=O)OC(C)(C)C)c1nnc(C)n1-2 [JQ1] + CC1(C)CCC(c2ccc(Cl)cc2)=C(CN2CCN(c3ccc(C(=O)NS(=O)(=O)c4ccc(N[C@H](CCN5CCOCC5)CSc5ccccc5)c(S(=O)(=O)C(F)(F)F)c4)cc3)CC2)C1 [Navitoclax] (partner 0.5 µM)"
  Target Of Assay: "NCI-H23"
  relative viability: 0.781
- Compound: "Cc1sc2c(c1C)C(c1ccc(Cl)cc1)=N[C@@H](CC(=O)OC(C)(C)C)c1nnc(C)n1-2 [JQ1] + O=C(c1cc(Cc2n[nH]c(=O)c3ccccc23)ccc1F)N1CCN(C(=O)C2CC2)CC1 [Olaparib] (partner 8 µM)"
  Target Of Assay: "NCI-H23"
  relative viability: 0.341

Lab note: Cc1sc2c(c1C)C(c1ccc(Cl)cc1)=N[C@@H](CC(=O)OC(C)(C)C)c1nnc(C)n1-2 [JQ1] + N=C(N)NC(=N)NCCc1ccccc1 [Phenformin] (partner 250 µM) gave relative viability of 0.768

----------
Items are presented alongside their recorded relative viability.
Test system: Calu-6
Assay: relative viability (nuclei count vs DMSO), 5 days (fraction); higher = more cells survive
Details: first compound 0.5 µM
When you answer, write just the number.

- Compound: "Nc1ccn([C@@H]2O[C@H](CO)[C@@H](O)[C@@H]2O)c(=O)n1 [Cytarabine] + COc1cc2c(Oc3ccc(NC(=O)C4(C(=O)Nc5ccc(F)cc5)CC4)cc3F)ccnc2cc1OCCCN1CCOCC1 [Foretinib] (partner 0.25 µM)"
  Target Of Assay: "Calu-6"
  Measured: 0.233
- Compound: "Nc1ccn([C@@H]2O[C@H](CO)[C@@H](O)[C@@H]2O)c(=O)n1 [Cytarabine] + CC(C)C[C@H](NC(=O)[C@H](Cc1ccccc1)NC(=O)c1cnccn1)B(O)O [Bortezomib] (partner 0.002 µM)"
  Target Of Assay: "Calu-6"
  Measured: 0.356

Please examine the following record next.
Lab note: COc1cc2nccc(Oc3ccc(NC(=O)Nc4cc(C)on4)c(Cl)c3)c2cc1OC [Tivozanib] + C[C@]1(O)C[C@@H](c2nc(-c3ccc4ccc(-c5ccccc5)nc4c3)c3c(N)nccn32)C1 [Linsitinib] (partner 1 µM) gave relative viability of 0.83

----------
Tested on: H3255
Assay: relative viability (nuclei count vs DMSO), 5 days (fraction); higher = more cells survive
Settings: first compound 0.253 µM
Recorded Endpoint: relative viability
When you answer, write just the number.

Answered examples (2):
- Compound: "Cc1cnc(-c2cnc(NCCNc3ccc(C#N)cn3)nc2-c2ccc(Cl)cc2Cl)[nH]1 + Cc1nc(Nc2ncc(C(=O)Nc3c(C)cccc3Cl)s2)cc(N2CCN(CCO)CC2)n1 [Dasatinib] (partner 0.075 µM)"
  relative viability: 0.445
- Compound: "O=c1[nH]c2ccccc2n1C1CCN(CCCC(c2ccc(F)cc2)c2ccc(F)cc2)CC1 [Pimozide] + CCNC(=O)c1noc(-c2cc(C(C)C)c(O)cc2O)c1-c1ccc(CN2CCOCC2)cc1 [Luminespib] (partner 0.01 µM)"
  relative viability: 0.926

Please examine the following record next.
Case Cc1cnc(-c2cnc(NCCNc3ccc(C#N)cn3)nc2-c2ccc(Cl)cc2Cl)[nH]1 + CC(=O)Nc1cccc(-n2c(=O)n(C3CC3)c(=O)c3c(Nc4ccc(I)cc4F)n(C)c(=O)c(C)c32)c1 [Trametinib] (partner 0.02 µM) , H3255, relative viability recorded as 0.583

----------
Tested on: ChaGo-K-1
Experiment: relative viability (nuclei count vs DMSO), 5 days (fraction); higher = more cells survive
Conditions: first compound 2.53 µM
Strictly below 0.5 in relative viability: condition met. Otherwise: condition not met.

- Molecule: "O=c1[nH]c2ccccc2n1C1CCN(CCCC(c2ccc(F)cc2)c2ccc(F)cc2)CC1 [Pimozide] + Cc1cc(Nc2cc(N3CCN(C)CC3)nc(Sc3ccc(NC(=O)C4CC4)cc3)n2)n[nH]1 [Tozasertib] (partner 0.1 µM)"
  Class: "condition met"
- Molecule: "O=c1[nH]c2ccccc2n1C1CCN(CCCC(c2ccc(F)cc2)c2ccc(F)cc2)CC1 [Pimozide] + Nc1ncn([C@H]2C[C@H](O)[C@@H](CO)O2)c(=O)n1 [Decitabine] (partner 2 µM)"
  Class: "condition not met"
- Molecule: "O=c1[nH]c2ccccc2n1C1CCN(CCCC(c2ccc(F)cc2)c2ccc(F)cc2)CC1 [Pimozide] + N=C(N)NC(=N)NCCc1ccccc1 [Phenformin] (partner 250 µM)"
  Class: "condition met"
- Molecule: "O=c1[nH]c2ccccc2n1C1CCN(CCCC(c2ccc(F)cc2)c2ccc(F)cc2)CC1 [Pimozide] + NC(=O)Nc1cc(-c2cccc(F)c2)sc1C(=O)N[C@H]1CCCNC1 [AZD7762] (partner 0.2 µM)"
  Class: "condition not met"

## Input For O=c1[nH]c2ccccc2n1C1CCN(CCCC(c2ccc(F)cc2)c2ccc(F)cc2)CC1 [Pimozide] + Cc1nc(Nc2ncc(C(=O)Nc3c(C)cccc3Cl)s2)cc(N2CCN(CCO)CC2)n1 [Dasatinib] (partner 0.075 µM) , is the recorded relative viability below the cut-off of 0.5?
## Output condition not met

----------
Test system: SW 1573
Experiment: relative viability (nuclei count vs DMSO), 5 days (fraction); higher = more cells survive
Settings: first compound 0.4 µM
Items are presented alongside their recorded relative viability.

- Molecule: "Cc1sc2c(c1C)C(c1ccc(Cl)cc1)=N[C@@H](CC(=O)OC(C)(C)C)c1nnc(C)n1-2 [JQ1] + CC(C)C[C@H](NC(=O)[C@H](Cc1ccccc1)NC(=O)c1cnccn1)B(O)O [Bortezomib] (partner 0.002 µM)"
  Target Of Assay: "SW 1573"
  Recorded Endpoint: "relative viability"
  Measured: 0.863

Please examine the following record next.
Lab note: Cc1sc2c(c1C)C(c1ccc(Cl)cc1)=N[C@@H](CC(=O)OC(C)(C)C)c1nnc(C)n1-2 [JQ1] + O=C(c1cc(Cc2n[nH]c(=O)c3ccccc23)ccc1F)N1CCN(C(=O)C2CC2)CC1 [Olaparib] (partner 8 µM) gave relative viability of 0.344

----------
System: ChaGo-K-1
Experiment: relative viability (nuclei count vs DMSO), 5 days (fraction); higher = more cells survive
Conditions: first compound 0.000632 µM
Recorded Endpoint: relative viability
When you answer, write just the number.

Answered examples (4):
- Compound: "CC(=O)O[C@@]12CO[C@@H]1C[C@H](O)[C@@]1(C)C(=O)[C@H](O)C3=C(C)[C@@H](OC(=O)[C@H](O)[C@@H](NC(=O)OC(C)(C)C)c4ccccc4)C[C@@](O)([C@@H](OC(=O)c4ccccc4)[C@H]21)C3(C)C [Docetaxel] + CC(C)C[C@H](NC(=O)[C@H](Cc1ccccc1)NC(=O)c1cnccn1)B(O)O [Bortezomib] (partner 0.002 µM)"
  relative viability: 0.542
- Compound: "CC(=O)O[C@@]12CO[C@@H]1C[C@H](O)[C@@]1(C)C(=O)[C@H](O)C3=C(C)[C@@H](OC(=O)[C@H](O)[C@@H](NC(=O)OC(C)(C)C)c4ccccc4)C[C@@](O)([C@@H](OC(=O)c4ccccc4)[C@H]21)C3(C)C [Docetaxel] + CC(=O)Nc1cccc(-n2c(=O)n(C3CC3)c(=O)c3c(Nc4ccc(I)cc4F)n(C)c(=O)c(C)c32)c1 [Trametinib] (partner 0.02 µM)"
  relative viability: 0.815
- Compound: "CC(=O)O[C@@]12CO[C@@H]1C[C@H](O)[C@@]1(C)C(=O)[C@H](O)C3=C(C)[C@@H](OC(=O)[C@H](O)[C@@H](NC(=O)OC(C)(C)C)c4ccccc4)C[C@@](O)([C@@H](OC(=O)c4ccccc4)[C@H]21)C3(C)C [Docetaxel] + Nc1ncn([C@H]2C[C@H](O)[C@@H](CO)O2)c(=O)n1 [Decitabine] (partner 2 µM)"
  relative viability: 0.548
- Compound: "CC(=O)O[C@@]12CO[C@@H]1C[C@H](O)[C@@]1(C)C(=O)[C@H](O)C3=C(C)[C@@H](OC(=O)[C@H](O)[C@@H](NC(=O)OC(C)(C)C)c4ccccc4)C[C@@](O)([C@@H](OC(=O)c4ccccc4)[C@H]21)C3(C)C [Docetaxel] + C[C@@H](Oc1cc(-c2cnn(C3CCNCC3)c2)cnc1N)c1c(Cl)ccc(F)c1Cl [Crizotinib] (partner 1 µM)"
  relative viability: 0.813

Lab note: CC(=O)O[C@@]12CO[C@@H]1C[C@H](O)[C@@]1(C)C(=O)[C@H](O)C3=C(C)[C@@H](OC(=O)[C@H](O)[C@@H](NC(=O)OC(C)(C)C)c4ccccc4)C[C@@](O)([C@@H](OC(=O)c4ccccc4)[C@H]21)C3(C)C [Docetaxel] + CS(=O)(=O)N1CCN(Cc2cc3nc(-c4cccc5[nH]ncc45)nc(N4CCOCC4)c3s2)CC1 [Pictilisib] (partner 1 µM) gave relative viability of 0.421

Lab note: CC(=O)O[C@@]12CO[C@@H]1C[C@H](O)[C@@]1(C)C(=O)[C@H](O)C3=C(C)[C@@H](OC(=O)[C@H](O)[C@@H](NC(=O)OC(C)(C)C)c4ccccc4)C[C@@](O)([C@@H](OC(=O)c4ccccc4)[C@H]21)C3(C)C [Docetaxel] + COc1cc2c(Oc3ccc(NC(=O)C4(C(=O)Nc5ccc(F)cc5)CC4)cc3F)ccnc2cc1OCCCN1CCOCC1 [Foretinib] (partner 0.25 µM) gave relative viability of 0.824

Lab note: CC(=O)O[C@@]12CO[C@@H]1C[C@H](O)[C@@]1(C)C(=O)[C@H](O)C3=C(C)[C@@H](OC(=O)[C@H](O)[C@@H](NC(=O)OC(C)(C)C)c4ccccc4)C[C@@](O)([C@@H](OC(=O)c4ccccc4)[C@H]21)C3(C)C [Docetaxel] + N=C(N)NC(=N)NCCc1ccccc1 [Phenformin] (partner 250 µM) gave relative viability of 0.408
